Quick reference for z-score among some molecules
assay: inhibitors of GR-EGFP nuclear translocation, primary screen, dynein cargo transport inhibitor project, imaging, high-content, 3617.4 mouse cells (AID 1381); details: measured here: cytoplasmic GR-EGFP intensity, at 20 µM, stronger effect = higher value, stimulated with dexamethasone, 1 µM
Among all 220,000 compounds or so, about 1,000 (0.45%) were called active. This is one part of a sample in which actives are shown more often than they occur.
metric-name: z-score

- molecule: "CC(=O)N/C(=C\\c1ccc(F)cc1)C(=O)NC(Cc1ccccc1)C(=O)O (stereo not drawn)"
  metric-name: "z-score"
  value-measured: -0.217
- molecule: "N#Cc1cccc(NC(=O)COC(=O)c2ccccc2C(=O)c2ccc(Cl)c([N+](=O)[O-])c2)c1"
  metric-name: "z-score"
  value-measured: -0.326
- molecule: "O=C(O)c1ccccc1OCc1ccccc1Cl"
  metric-name: "z-score"
  value-measured: -0.834
